HIV-1 protease (Human immunodeficiency virus type 1 group M subtype B, UniProt P04585) measurements of pIC50, listed per entry.
To interpret pIC50, take it as minus log10 of a concentration measured in moles per litre.

CC(C)(C)OC(=O)NC1CCCCC1NC(=O)C(Cc1ccccc1)CC(O)CC(Cc1ccccc1)C(=O)NC1CCCCC1NC(=O)OC(C)(C)C (stereo not drawn) [Example 46] :: 6.10
CC(C)(C)NC(=O)CN(Cc1ccccc1)CC(O)(CO)CN(CC(=O)NC(C)(C)C)Cc1ccccc1 [Example 52] :: 5.30
CC(C)(C)NC(=O)C(Cc1ccccc1)CC(O)CC(Cc1ccccc1)C(=O)NC(C)(C)C (stereo not drawn) [Example 36] :: 7.00

Q: For CCOC(=O)CN(Cc1ccccc1)CC(O)(CO)CN(CC(=O)NC(C)(C)C)Cc1ccccc1 (stereo not drawn) [Example 54] , what is its reported pIC50?
Result: 4.00

Q: For CC(C)(C)NC(=O)C1CCCCN1CC(O)(CO)CN1CCCCC1C(=O)NC(C)(C)C (single isomer, unassigned) [58 (Isomer B)] , what is its reported pIC50?
Result: 4.00

Q: For O=C(NC1CCCC1)C(Cc1ccccc1)CC(O)CC(Cc1ccccc1)C(=O)NC1CCCC1 (stereo not drawn) [Example 39] , what is its reported pIC50?
Result: 8.00
